assay: logP by HPLC on reversed-phase column (C18), EEC Directive 79/831 Annex V.A8; type: physicochemical
Measured property: logP

1) N#CC1(NC(=O)c2cc(-n3cc(-c4c(Cl)cc(C(F)(C(F)(F)F)C(F)(F)F)cc4Cl)nn3)ccc2Cl)CC1 [I-T48-4] | 4.2
2) Cc1cc(C(F)(C(F)(F)F)C(F)(F)F)cc(C)c1-c1cn(-c2ccc(Cl)c(C(=O)NC3CSC3)c2)nn1 [I-T48-6] | 4.5
3) Cc1cc(C(F)(C(F)(F)F)C(F)(F)F)cc(C)c1-c1cn(-c2ccc(Cl)c(C(=O)NCC(F)(F)F)c2)nn1 [I-T48-5] | 4.5
4) O=C(NC1CC1)c1cc(-n2cc(-c3c(Cl)cc(C(F)(C(F)(F)F)C(F)(F)F)cc3Cl)nn2)ccc1Cl [I-T48-3] | 4.3
